Target: hα2A receptor (Homo sapiens, UniProt P08913)
Construct: expressed in transfected cells; host or cells: CHO cells
Sequence (P08913 1-465): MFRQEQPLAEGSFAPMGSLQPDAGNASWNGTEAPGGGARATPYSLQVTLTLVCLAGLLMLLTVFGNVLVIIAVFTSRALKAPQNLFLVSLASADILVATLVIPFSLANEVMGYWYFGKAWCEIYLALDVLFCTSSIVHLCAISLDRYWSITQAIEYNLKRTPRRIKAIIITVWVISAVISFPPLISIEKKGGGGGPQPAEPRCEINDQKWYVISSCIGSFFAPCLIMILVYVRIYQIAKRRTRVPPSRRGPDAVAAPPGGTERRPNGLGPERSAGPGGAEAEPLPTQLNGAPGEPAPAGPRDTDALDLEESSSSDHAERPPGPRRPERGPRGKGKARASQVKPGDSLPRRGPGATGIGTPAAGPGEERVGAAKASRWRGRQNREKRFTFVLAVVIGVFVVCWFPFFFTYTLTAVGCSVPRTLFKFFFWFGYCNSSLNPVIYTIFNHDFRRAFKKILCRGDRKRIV
Assay: Radioligand binding experiment for hα2A receptor ([3H]-raulwolscine, CHO cell membranes)
Conditions: [3H]-raulwolscine 1 nM, membranes of CHO cells transfected with human α2A receptor; read-out: pIC50 hα2A (converted)
Lab note - cut at 6 nM for IC50: Fulfilled if strictly below, Not fulfilled if not.

{"Molecule": "CCNC(=O)c1cc2c(cc1OC)C1=NOC(CN3CCN(C/C(C)=C/c4ccccc4)CC3)C1CO2 (centres unmarked) [Compound 16]", "Measured Target": "hα2A receptor (Homo sapiens, UniProt P08913)", "Classification": "Fulfilled"}
{"Molecule": "COCCOCOCc1cc2c(cc1OC)C1=NOC(CN3CCN(C/C(C)=C/c4ccccc4)CC3)C1CO2 (centres unmarked) [Compound 6]", "Measured Target": "hα2A receptor (Homo sapiens, UniProt P08913)", "Classification": "Not fulfilled"}
{"Molecule": "COc1cc2c(cc1CN1CCOCC1)OCC1C2=NOC1CN1CCN(C/C(C)=C/c2ccccc2)CC1 (centres unmarked) [Compound 10]", "Measured Target": "hα2A receptor (Homo sapiens, UniProt P08913)", "Classification": "Not fulfilled"}
{"Molecule": "Cc1ccc2c(c1)C1=NOC(CN3CCN(CC=Cc4ccccc4)CC3)C1CO2 (centres unmarked) [Compound 1]", "Measured Target": "hα2A receptor (Homo sapiens, UniProt P08913)", "Classification": "Fulfilled"}
{"Molecule": "COc1cc2c(cc1CN1CCOCC1)OCC1C2=NOC1CN1CCN(CC(C)=Cc2ccccc2)CC1 (single isomer, unassigned) [Compound 21]", "Measured Target": "hα2A receptor (Homo sapiens, UniProt P08913)", "Classification": "Not fulfilled"}

###

Target: hα2B receptor (Homo sapiens, UniProt P18089)
Construct: expressed in transfected cells; host or cells: CHO cells
Sequence (P18089 1-450): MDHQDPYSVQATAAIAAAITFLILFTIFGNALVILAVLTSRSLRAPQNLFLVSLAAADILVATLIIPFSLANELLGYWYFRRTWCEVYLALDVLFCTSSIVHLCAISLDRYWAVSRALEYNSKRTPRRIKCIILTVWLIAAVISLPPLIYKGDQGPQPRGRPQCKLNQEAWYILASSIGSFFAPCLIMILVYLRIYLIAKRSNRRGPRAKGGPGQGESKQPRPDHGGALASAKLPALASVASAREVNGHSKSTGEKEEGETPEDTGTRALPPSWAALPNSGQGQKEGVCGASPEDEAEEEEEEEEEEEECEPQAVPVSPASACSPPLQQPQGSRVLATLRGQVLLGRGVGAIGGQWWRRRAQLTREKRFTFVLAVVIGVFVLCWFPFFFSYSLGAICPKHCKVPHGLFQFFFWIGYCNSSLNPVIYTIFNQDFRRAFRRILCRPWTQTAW
Assay: Radioligand binding experiment for hα2B receptor ([3H]-raulwolscine, CHO cell membranes)
Details: [3H]-raulwolscine 1 nM, membranes of CHO cells transfected with human α2B receptor; read-out: pIC50 hα2B (converted)
Please note: IC50 exactly at 6 nM is Criterion not met. Only values below 6 nM get Criterion met.

{"Molecule": "COc1cc2c(cc1CN1CCOCC1)OCC1C2=NOC1CN1CCN(C/C(C)=C/c2ccccc2)CC1 (stereo not drawn)", "Classification": "Criterion met"}
{"Molecule": "CCN(Cc1cc2c(cc1OC)C1=NOC(CN3CCN(CC(C)=Cc4ccc(F)cc4)CC3)C1CO2)C(C)C (stereo not drawn)", "Classification": "Criterion not met"}
{"Molecule": "COc1cc2c(cc1CN1CCOCC1)OCC1C2=NOC1CN1CCN(CC(C)=Cc2ccccc2)CC1 (single isomer, unassigned) [Compound 21]", "Classification": "Criterion not met"}
{"Molecule": "COCCOCOCc1cc2c(cc1OC)C1=NOC(CN3CCN(C/C(C)=C/c4ccccc4)CC3)C1CO2 (stereo not drawn)", "Classification": "Criterion met"}
{"Molecule": "COCc1ccc2c(c1)OCC1C2=NOC1CN1CCN(CC(C)=Cc2ccccc2)CC1 (stereo not drawn)", "Classification": "Criterion met"}
{"Molecule": "CC(=Cc1ccccc1)CN1CCN(CC2ON=C3c4ccc(CN(C)CCO)cc4OCC32)CC1 (stereo not drawn)", "Classification": "Criterion met"}
{"Molecule": "COc1cc2c(cc1CN1CCOCC1)OCC1C2=NOC1CN1CCN(CC(C)=Cc2ccccc2)CC1 (single isomer, unassigned) [Compound 20]", "Classification": "Criterion not met"}
{"Molecule": "Cc1ccc2c(c1)C1=NOC(CN3CCN(CC=Cc4ccccc4)CC3)C1CO2 (stereo not drawn)", "Classification": "Criterion not met"}
{"Molecule": "COc1cc2c(cc1CN1CCC(C)CC1)OCC1C2=NOC1CN1CCN(CC(C)=Cc2ccc(F)cc2)CC1 (stereo not drawn)", "Classification": "Criterion met"}

###

Target: hα2C receptor (Homo sapiens, UniProt P18825)
Construct: expressed in transfected cells; host or cells: CHO cells
Sequence (P18825 1-462): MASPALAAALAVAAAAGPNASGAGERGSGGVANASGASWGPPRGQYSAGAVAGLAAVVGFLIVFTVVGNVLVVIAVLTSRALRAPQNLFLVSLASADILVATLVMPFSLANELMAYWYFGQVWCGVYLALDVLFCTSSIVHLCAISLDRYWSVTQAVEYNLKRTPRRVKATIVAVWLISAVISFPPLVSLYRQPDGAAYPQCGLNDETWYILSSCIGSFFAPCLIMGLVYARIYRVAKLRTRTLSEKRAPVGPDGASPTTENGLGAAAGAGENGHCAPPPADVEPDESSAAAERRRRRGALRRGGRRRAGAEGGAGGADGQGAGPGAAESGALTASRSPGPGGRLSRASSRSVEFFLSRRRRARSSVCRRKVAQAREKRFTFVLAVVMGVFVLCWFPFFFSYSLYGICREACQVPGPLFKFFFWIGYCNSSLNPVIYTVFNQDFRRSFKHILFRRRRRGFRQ
Assay: Radioligand binding experiment for hα2C receptor ([3H]-raulwolscine, CHO cell membranes)
Details: [3H]-raulwolscine 1 nM, membranes of CHO cells transfected with human α2C receptor; read-out: pIC50 hα2C (converted)

{"Molecule": "COc1cc2c(cc1CN1CCC(C)CC1)OCC1C2=NOC1CN1CCN(CC(C)=Cc2ccc(F)cc2)CC1 (stereo not shown) [Compound 25]", "Units Label": "nM", "IC50": 0.794}
{"Molecule": "COc1cc2c(cc1CN1CCOCC1)OCC1C2=NOC1CN1CCN(CC(C)=Cc2ccccc2)CC1 (single isomer, unassigned) [Compound 21]", "Units Label": "nM", "IC50": 3.16}
{"Molecule": "CCNC(=O)c1cc2c(cc1OC)C1=NOC(CN3CCN(C/C(C)=C/c4ccccc4)CC3)C1CO2 (stereo not shown) [Compound 16]", "Units Label": "nM", "IC50": 1.58}
{"Molecule": "COCc1ccc2c(c1)OCC1C2=NOC1CN1CCN(CC(C)=Cc2ccccc2)CC1 (stereo not shown) [Compound 5]", "Units Label": "nM", "IC50": 0.794}

###

molecular target: hα2C receptor (Homo sapiens); construct: expressed in transfected cells; host or cells: CHO cells; assay: Radioligand binding experiment for hα2C receptor ([3H]-raulwolscine, CHO cell membranes); conditions: [3H]-raulwolscine 1 nM, membranes of CHO cells transfected with human α2C receptor; read-out: pIC50 hα2C (converted)
# IC50 per entry

{"Compound": "COc1cc2c(cc1COC(C)=O)OCC1C2=NOC1CN1CCN(C/C(C)=C/c2ccccc2)CC1 (stereo not shown)", "Measured Target": "hα2C receptor (Homo sapiens)", "IC50": "1.26 nM"}
{"Compound": "COc1cc2c(cc1-c1ccccc1)OCC1C2=NOC1CN1CCN(C/C(C)=C/c2ccccc2)CC1 (stereo not shown)", "Measured Target": "hα2C receptor (Homo sapiens)", "IC50": "12.6 nM"}
{"Compound": "COc1cc2c(cc1CO)OCC1C2=NOC1CN1CCN(C/C(C)=C/c2ccccc2)CC1 (stereo not shown)", "Measured Target": "hα2C receptor (Homo sapiens)", "IC50": "1.58 nM"}
{"Compound": "CC(=Cc1ccccc1)CN1CCN(CC2ON=C3c4ccc(CN(C)CCO)cc4OCC32)CC1 (stereo not shown)", "Measured Target": "hα2C receptor (Homo sapiens)", "IC50": "0.2 nM"}
